- Tested on: corn (Zea mays)
- assay name: Test C greenhouse herbicide test, pre- and postemergence
- Format: in vivo
- reported conditions: Postemergence, 31 g ai/ha; scale 0 to 100 (0 no effect, 100 complete control)
# key: entry, value: Plant response rating, Corn
assay metric: Plant response rating, Corn

INSERT INTO assay_data (smiles_code, measured_target, result) VALUES
  ('Cc1cc(C)c2ccccc2c1-c1c(OS(C)(=O)=O)c(C)nn(C)c1=O', 'corn (Zea mays)', 15),
  ('Cc1nn(C)c(=O)c(-c2cc(F)cc3ccccc23)c1OS(C)(=O)=O', 'corn (Zea mays)', 5),
  ('CCC(=O)Oc1c(C)nn(C)c(=O)c1-c1ccc(Br)c2ccccc12', 'corn (Zea mays)', 5),
  ('Cc1nn(C)c(=O)c(-c2ccc(F)c3ccccc23)c1OC(=O)CC(F)(F)F', 'corn (Zea mays)', 10);
